B1: tRNA (parent)
chain: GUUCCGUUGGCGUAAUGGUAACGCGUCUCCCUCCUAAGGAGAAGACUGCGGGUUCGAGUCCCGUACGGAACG

- Variants of: B1
- Assay Comment: yeast fitness, log relative to wild type (ln ratio); higher = fitter; tRNA-Arg(CCU), competitive growth, 37 C, 1 M NaCl
Measured Parameter: yeast fitness (ln)
Answers are plain numbers.

I have 3 variants here; please give me yeast fitness (ln) for each one.
1. G1A A43C C46U C66A A69G C71U
2. G6A C27U C46U A70U C71U
3. G1A U2G G6U C66A C71U

1. -0.216
2. -0.218
3. -0.193

I have 2 variants here; please give me yeast fitness (ln) for each one.
1. U2G G6A C27U A43C C66U A69G A70G
2. U2G G6A C27U C46U C66U A70U

-0.3
-0.01

I have 6 variants here; please give me yeast fitness (ln) for each one.
1. G6A A43C A69G A70U
2. G1A U2G C27U A70U
3. C27U C66U A70G C71U
4. U2G C66A A69G A70U
5. G1A U2G G6U C66A A69G A70G C71U
6. U2G G6A C27U C46U A69G A70U C71U

-0.224
-0.33
-0.183
-0.131
-0.325
-0.368

These data points were gathered from the RNAGym collection of RNA variant scans (doi:10.1038/s41586-018-0170-7).
